Molecular target: HCV polymerase (NS5B570n-Con1) (Hepatitis C virus genotype 1b)
Construct: contains a 21 amino acid deletion at the C-terminus relative to the full-length HCV polymerase; 6-histidine (N); made in house; host or cells: E. coli strain BL21(DE) pLysS (pET17b)
Test: biochemical
Set-up: species or system HCV Con1 strain
Conditions: IC50 HCV NS5B RNA Polymerase Assay, values without asterisk; 20 nM NS5B570n-Con1 enzyme, 20 nM cIRES RNA template
pIC50: −log10 of the molar value.
Kindly return rule met if reported pIC50 is no lower than 7; return rule not met if it is lower.

Evaluate CC(C)(C)c1cc(Oc2ccccc2)cc(-c2ccc[nH]c2=O)c1 : pIC50 at minimum 7? rule not met

How about COc1c(C(=O)N2CCCC(CO)C2)cc(-c2ccc[nH]c2=O)cc1C(C)(C)C (stereo not drawn) ? rule not met

Next entry: COc1c(CCc2ccc(NS(C)(=O)=O)c(C)c2)cc(-c2ccc[nH]c2=O)cc1C(C)(C)C rule met

Check CC1(C)COc2c(/C=C/c3ccc(NS(C)(=O)=O)cc3)cc(-c3ccc[nH]c3=O)cc21 too. rule met

Same again, this time with COc1c(CCc2cnc(NS(C)(=O)=O)nc2)cc(-c2ccc[nH]c2=O)cc1C(C)(C)C rule met

Let us now turn to COc1c(CCc2ccc(NS(C)(=O)=O)c(F)c2)cc(-c2ccc[nH]c2=O)cc1C(C)(C)C rule met

Ok, now CNC(=O)Nc1ccc(CCc2cc(-c3ccc[nH]c3=O)cc(C(C)(C)C)c2)cc1 rule not met

Input CC(C)(C)c1cc(CCc2ccc(NS(C)(=O)=O)cc2)cc(-c2ccc[nH]c2=O)c1 rule met

Also need CC(C)(C)c1ccc(O)c(-c2ccc[nH]c2=O)c1 , thanks. rule not met

====

In this section we review reported melting point values for a set of compounds.

Use the examples below as a reference point.
COc1ccc(-c2ccc[nH]c2=O)cc1C1(C)CC1; 194 to 195 °C
COc1c(CCc2cnc(NS(C)(=O)=O)cn2)cc(-c2ccc[nH]c2=O)cc1C(C)(C)C; 282 to 283 °C
COc1c(C(=O)c2ccc(O)cc2)cc(-c2ccc[nH]c2=O)cc1C(C)(C)C; 185 to 187 °C

# next compound below
If you can, please state the reported melting point value of COc1c(C(=O)c2cccc(CNS(C)(=O)=O)c2)cc(-c2ccc[nH]c2=O)cc1C(C)(C)C . 110 to 115 °C

====

Molecular target: HCV polymerase (NS5B570n-Con1) (Hepatitis C virus genotype 1b);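 further: recombinant His-tagged enzyme from E. coli, radiolabeled nucleotide incorporation into acid-insoluble RNA read by scintillation after filtration, no-enzyme background subtracted, activity relative to positive control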
Construct: contains a 21 amino acid deletion at the C-terminus relative to the full-length HCV polymerase; 6-histidine (N); made in house; host or cells: E. coli strain BL21(DE) pLysS (pET17b)
Experiment: biochemical
Parameters: species or system HCV Con1 strain
Settings: IC50 HCV NS5B RNA Polymerase Assay, values without asterisk; 20 nM NS5B570n-Con1 enzyme, 20 nM cIRES RNA template
Measured IC50 values are reported for all entries that follow.
Report the value in nM with no unit label.

COc1c(CCc2ccc(F)cc2)cc(-c2ccc[nH]c2=O)cc1C(C)(C)C; 90
COc1c(NC(=O)c2ccc(N)nc2)cc(-c2ccc[nH]c2=O)cc1C(C)(C)C; 22
COc1c(C(=O)c2cccc(C(N)=O)c2)cc(-c2ccc[nH]c2=O)cc1C(C)(C)C; 10
COc1c(C(=O)NCCN(C)C)cc(-c2ccc[nH]c2=O)cc1C(C)(C)C; 1750

Enter reported IC50 observed with HCV polymerase (NS5B570n-Con1) (Hepatitis C virus genotype 1b) for CC(C)(C)c1cc(CCc2ccc(NS(C)(=O)=O)cc2)c(O)c(-c2ccc[nH]c2=O)c1 10
